Target: hOx2R (Homo sapiens (Human))
Assay: Calcium accumulation in cells (FLIPR), hOx2R
Details: inhibition of orexin A induced calcium accumulation, Cheng and Prusoff correction
Protocol: Calcium Accumulation in Cells (FLIPR): Cells expressing human orexin 1 or human orexin 2 receptors, were seeded at 8,000 cells/well in 384 well black-walled clear bottom, poly-D-lysine coated plates. […] On the day of the experiment, the cells seeded in black plates were treated with assay buffer containing the Ca^2+ sensitive fluorescent dye Fluo-4-AM (2 μM), and probenecid (0.1 mM). […] Fluorescence measurements were then continued every 1 S for 120 S followed by every 4 S for 240 S. […]
REPORTED_METRIC: Ki (nM)

1: O=C1N(Cc2cccc3c2OCCN3)CCCC12CCN(c1cnc3ccccc3n1)CC2 [Example 132]
2: Cc1ccc(-n2nccn2)cc1CN1CCCC2(CCN(c3cnc4ccccc4n3)CC2)C1=O [Example 128]
3: O=C1CCCC2(CCN(c3nc4ccccc4o3)CC2)N1Cc1cccc2[nH]ccc12 [Example 42]
4: Cc1cc(N2CCC3(CCCN(Cc4c[nH]c5ccccc45)C3=O)CC2)nc2ccccc12 [Example 164]
I'd appreciate it if you sorted the entries above by their Ki, lowest to highest. Please list each label once, in the requested order.
3, 4, 2, 1
(3: 3 nM, 4: 14 nM, 2: 73 nM, 1: 555 nM)

====

target: hOx2R (Homo sapiens (Human), UniProt O43614); assay: Calcium accumulation in cells (FLIPR), hOx2R; type: cell-based; conditions: measured at a concentration of 10 μM of compound
Sequence (O43614 whole entry): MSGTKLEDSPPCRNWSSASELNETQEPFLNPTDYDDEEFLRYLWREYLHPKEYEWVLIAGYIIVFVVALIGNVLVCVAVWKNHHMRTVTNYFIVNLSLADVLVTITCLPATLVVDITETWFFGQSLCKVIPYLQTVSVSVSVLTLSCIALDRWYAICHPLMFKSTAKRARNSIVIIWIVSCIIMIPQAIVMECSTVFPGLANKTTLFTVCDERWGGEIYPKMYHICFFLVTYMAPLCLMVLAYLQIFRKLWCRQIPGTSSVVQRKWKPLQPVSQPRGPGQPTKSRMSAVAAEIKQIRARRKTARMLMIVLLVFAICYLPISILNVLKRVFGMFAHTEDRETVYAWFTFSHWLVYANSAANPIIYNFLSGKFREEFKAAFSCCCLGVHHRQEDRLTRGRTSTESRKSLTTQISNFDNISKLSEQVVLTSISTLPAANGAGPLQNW
REPORTED_METRIC: inhibition at 10 µM (%)

Cc1nn(-c2ccccc2)nc1CN1CCCC2(CCN(c3cnc4ccccc4n3)CC2)C1=O :: 12
COc1cc(CN2CCCC3(CCN(c4cnc5ccccc5n4)CC3)C2=O)ccn1 :: 43
O=C1N(Cc2ccc3[nH]ccc3c2)CCCC12CCN(c1cnc3ccccc3n1)CC2 :: 24

P: Cn1cc(-c2ccccc2CN2CCCC3(CCN(c4cnc5ccccc5n4)CC3)C2=O)cn1
Q: O=C1N(Cc2c[nH]c3ccccc23)CCCC12CCN(c1nc(-c3ccc(F)cc3)cs1)CC2
R: Cc1oc(-c2ccoc2)nc1CN1CCCC2(CCN(c3cnc4ccccc4n3)CC2)C1=O
Falling order of inhibition at 10 µM, please. Respond with the label ranking, as requested.
R, P, Q
(R: 53%, P: 32%, Q: 20%)

====

molecular target: hOx2R (Homo sapiens (Human), UniProt O43614); experiment: Radioligand binding assay, [3H]-SB649868, hOx2R; details: radioligand [3H]-SB649868, competition
REPORTED_METRIC: Kd (nM)

O=C1N(Cc2cccc3nsnc23)CCCC12CCN(c1cnc3ccccc3n1)CC2 :: 630
O=C1N(Cc2c[nH]c3ccccc23)CCCC12CCN(c1nccc3occc13)CC2 :: 139
Cn1ccc2c(CN3C(=O)CCCC34CCN(c3cnc5ccccc5n3)CC4)cccc21 :: 125
O=C1N(Cc2ncoc2-c2ccccc2)CCCC12CCN(c1cnc3ccccc3n1)CC2 :: 36
Cn1cc(CN2C(=O)CCCC23CCN(c2cnc4ccccc4n2)CC3)c2cccnc21 :: 50

P: O=C1N(Cc2ccccc2-c2ncco2)CCCC12CCN(c1cnc3ccccc3n1)CC2
Q: Cc1cnc(-c2cccc(CN3CCCC4(CCN(c5cnc6ccccc6n5)CC4)C3=O)c2)o1
R: Cc1noc(-c2cccc(CN3CCCC4(CCN(c5cnc6ccccc6n5)CC4)C3=O)c2)n1
S: O=C1N(Cc2ccccc2-c2ccco2)CCCC12CCN(c1cnc3ccccc3n1)CC2
T: O=C1N(Cc2ccnc(-n3cccn3)c2)CCCC12CCN(c1cnc3ccccc3n1)CC2
Kindly order the items shown according to Kd, from the highest value down. List each label, following the requested order.
R, T, P, S, Q

====

biological target: UniProt:O43613; assay: Radioligand binding assay, [3H]-SB649868, hOx1R; settings: radioligand [3H]-SB649868, competition
Sequence (O43613 whole entry): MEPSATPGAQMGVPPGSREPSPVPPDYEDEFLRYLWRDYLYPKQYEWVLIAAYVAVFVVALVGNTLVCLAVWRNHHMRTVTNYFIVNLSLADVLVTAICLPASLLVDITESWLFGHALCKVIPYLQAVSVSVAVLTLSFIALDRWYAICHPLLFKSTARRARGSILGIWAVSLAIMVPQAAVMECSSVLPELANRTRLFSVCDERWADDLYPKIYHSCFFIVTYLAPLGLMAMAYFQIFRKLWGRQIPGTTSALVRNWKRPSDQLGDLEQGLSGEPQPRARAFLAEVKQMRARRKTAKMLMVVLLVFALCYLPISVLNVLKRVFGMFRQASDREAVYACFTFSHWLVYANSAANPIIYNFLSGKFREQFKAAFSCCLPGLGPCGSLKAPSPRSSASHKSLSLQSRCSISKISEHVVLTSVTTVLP
pKd: −log10 of the molar value.
REPORTED_METRIC: pKd

O=C1N(Cc2c[nH]c3ccccc23)CCCC12CCN(c1cc3nccnc3cn1)CC2 [Example 167] :: 5.78

a: O=C1CCCC2(CCN(c3cnc4ccccc4n3)CC2)N1Cc1c[nH]c2ccccc12 [Example 43]
b: O=C1N(Cc2ccnc(-n3cccn3)c2)CCCC12CCN(c1cnc3ccccc3n1)CC2 [Example 63]
Lower value for measured pKd? Options: a , b Field: selected label. Fill in the label of the entry you choose.
b
(b: 5.42, a: 6.69)

I: COc1cccc(-n2cncc2CN2CCCC3(CCN(c4cnc5ccccc5n4)CC3)C2=O)c1 [Example 111]
II: Cn1ccc2c(CN3C(=O)CCCC34CCN(c3cnc5ccccc5n3)CC4)cccc21 [Example 44]
Between I and II , which one has the lower reported pKd value? Identify your selection by its label.
I
(I: 5.42, II: 7.25)

a: Cc1ccc(-n2nccn2)c(CN2CCCC3(CCN(c4cnc5ccccc5n4)CC3)C2=O)c1 [Example 125]
b: O=C1N(Cc2c[nH]c3ccccc23)CCCC12CCN(c1nccc3occc13)CC2 [Example 156]
c: Cc1cc(N2CCC3(CCCN(Cc4c[nH]c5ccccc45)C3=O)CC2)nc2ccccc12 [Example 164]
In this exercise, place the 3 compounds in ascending sequence of their recorded pKd. Present the labels in the sequence the task asks for.
a, b, c

a: O=C1N(Cc2cccc3nsnc23)CCCC12CCN(c1cnc3ccccc3n1)CC2 [Example 113]
b: Cc1nc(CN2CCCC3(CCN(c4cnc5ccccc5n4)CC3)C2=O)c(-c2cccc(F)c2)s1 [Example 73]
# returns the entry with the larger pKd; inputs a and b Respond with the label that goes with your answer.
b

P: O=C1N(Cc2ccccc2-c2ncco2)CCCC12CCN(c1cnc3ccccc3n1)CC2 [Example 149]
Q: Cc1cnc(-c2cccc(CN3CCCC4(CCN(c5cnc6ccccc6n5)CC4)C3=O)c2)o1 [Example 147]
// pick larger pKd from pair: P vs Q Record your answer as the label of the chosen record.
Q

P: O=C1N(Cc2c[nH]c3ccccc23)CCCC12CCN(c1ccc3ccccc3n1)CC2 [Example 160]
Q: Cc1ccc2oc(N3CCC4(CCCC(=O)N4Cc4cccc5[nH]ccc45)CC3)nc2c1 [Example 140]
Field: lower recorded pKd (choose P or Q ) Bench note: the answer is the label of the chosen record.
Q
(Q: 5.80, P: 6.09)

====

biological target: hOx2R (Homo sapiens (Human), UniProt O43614); assay: Calcium accumulation in cells (FLIPR), hOx2R; format: cell-based; conditions: inhibition of orexin A induced calcium accumulation, Cheng and Prusoff correction
REPORTED_METRIC: Ki (nM)

Cc1cc(C)n(-c2ccccc2CN2CCCC3(CCN(c4cnc5ccccc5n4)CC3)C2=O)n1 [Example 115] :: 1200

a: O=C1CCCC2(CCN(c3nnc(-c4ccccc4)o3)CC2)N1Cc1cccc2[nH]ccc12 [Example 137]
b: COc1cccc(-n2cncc2CN2CCCC3(CCN(c4cnc5ccccc5n4)CC3)C2=O)c1 [Example 111]
Exercise: compare a and b ; which one has the greater Ki? Your choice should be expressed through its label.
a

====

target: hOx2R (Homo sapiens (Human), UniProt O43614); test: Radioligand binding assay, [125I]orexin A, hOx2R; conditions: radioligand [125I]orexin A, competition
REPORTED_METRIC: Kd (nM)

O=C1N(Cc2cccc3ccccc23)CCCC12CCN(c1cnc3ccccc3n1)CC2 :: 34
Cn1c(N2CCC3(CCCN(Cc4cccc5ccccc45)C3=O)CC2)nc2ccccc21 :: 6100
O=C1N(Cc2cccc3cccnc23)CCCC12CCN(c1cnc3ccccc3n1)CC2 :: 211

A: O=C1N(Cc2cccc(-c3ccccn3)c2)CCCC12CCN(c1cnc3ccccc3n1)CC2
B: Cc1cccc(CN2CCCC3(CCN(c4cnc5ccccc5n4)CC3)C2=O)c1
Please let me know which one, A or B , has a lower measured Kd value. # respond with the chosen item's label
A
(A: 175 nM, B: 288 nM)

a: O=C1N(Cc2cccc(Cl)c2)CCCC12CCN(c1cnc3ccccc3n1)CC2
b: O=C1N(Cc2cccc(-c3cccnc3)c2)CCCC12CCN(c1cnc3ccccc3n1)CC2
Pick one, a or b : lowest reported Kd. Let me know the label of the one you choose.
b

A: Cc1onc(-c2ccccc2)c1CN1CCCC2(CCN(c3cnc4ccccc4n3)CC2)C1=O
B: O=C1N(Cc2ccccc2)CCCC12CCN(c1cnc3ccccc3n1)CC2
// compare: A vs B , metric Kd, want the smaller Bench note: the answer is the label of the chosen record.
A
(A: 181 nM, B: 300 nM)

1: O=C1N(Cc2ccccc2C(F)(F)F)CCCC12CCN(c1cnc3ccccc3n1)CC2
2: O=C1N(Cc2c[nH]c3ncccc23)CCCC12CCN(c1cnc3ccccc3n1)CC2
Identify the entry with the larger Kd. Options: 1 and 2 Please respond with the label that marks your chosen entry.
1
(1: 1090 nM, 2: 159 nM)

A: O=C1N(Cc2c[nH]c3ccccc23)CCCC12CCN(c1cnc3ccccc3n1)CC2
B: O=C1N(Cc2ccc3ccccc3c2)CCCC12CCN(c1cnc3ccccc3n1)CC2
C: O=C1N(Cc2cccc3c2OCCO3)CCCC12CCN(c1cnc3ccccc3n1)CC2
D: O=C1N(Cc2cccc3c2OCO3)CCCC12CCN(c1cnc3ccccc3n1)CC2
E: O=C1N(Cc2ccc3c(c2)OCCO3)CCCC12CCN(c1cnc3ccccc3n1)CC2
Exam item: list the entries in increasing order of Kd. // rank by listing labels in the order requested
A, C, D, E, B

a: Cc1ccc(C)c(CN2C(=O)CCCC23CCN(c2cnc4ccccc4n2)CC3)c1
b: O=C1CCCC2(CCN(c3nc4cc(Cl)ccc4o3)CC2)N1Cc1cccc2[nH]ccc12
c: O=C1N(Cc2cccc(C(F)(F)F)c2)CCCC12CCN(c1cnc3ccccc3n1)CC2
d: O=C1N(Cc2ccc(C(F)(F)F)cc2)CCCC12CCN(c1cnc3ccccc3n1)CC2
Arrange the 4 entries by Kd so the values rise. Put the labels in the requested order and list them out.
a, b, c, d
(a: 36 nM, b: 96 nM, c: 211 nM, d: 5240 nM)

I: O=C1N(Cc2cccc3[nH]ccc23)CCCC12CCN(c1cnc3ccccc3n1)CC2
II: O=C1CCCC2(CCN(c3cnc4ccccc4n3)CC2)N1Cc1cccc2[nH]ccc12
// max by Kd over [ I , II ] State your choice using its label.
I
(I: 130 nM, II: 7 nM)

a: Cc1cc2c(CN3CCCC4(CCN(c5cnc6ccccc6n5)CC4)C3=O)cccc2[nH]1
b: O=C1CCCC2(CCN(c3nc4ccccc4o3)CC2)N1Cc1cccc2[nH]ccc12
c: O=C1N(Cc2ccccc2)CCCC12CCN(c1nc3ccccc3[nH]1)CC2
List from greatest to least Kd. Record the ranking as a list of labels in the requested order.
c, a, b
